# viability, T/C per record follows
System: SK-OV-3 multi-cell spheroids, viability
methodDescription: Anticancer human tumor SK-OV-3 cell line growth inhibition [IpAb];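 note: viability read after seven days of drug exposure; percent of DMSO vehicle control luminescence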
conditionLabel: second compound 0.316 µM; first compound 0.00949 µM; hits give low values
parameterMeasured: viability, T/C (%)

| molecule | studySystem | parameterMeasured | quantitativeResult |
| --- | --- | --- | --- |
| CC(C)(C)c1cnc(CSc2cnc(NC(=O)C3CCNCC3)s2)o1 + CC(C)NCC(C(=O)N1CCN(c2ncnc3c2C(C)CC3O)CC1)c1ccc(Cl)cc1 | SK-OV-3 multi-cell spheroids, viability | viability, T/C | 49.5 |
| CC(=O)c1c(C)c2cnc(Nc3ccc(N4CCNCC4)cn3)nc2n(C2CCCC2)c1=O + CC(C)NCC(C(=O)N1CCN(c2ncnc3c2C(C)CC3O)CC1)c1ccc(Cl)cc1 | SK-OV-3 multi-cell spheroids, viability | viability, T/C | 28 |
| Cn1cnc2c(F)c(Nc3ccc(Br)cc3Cl)c(C(=O)NOCCO)cc21 + CCN1CCN(Cc2ccc(Nc3ncc(F)c(-c4cc(F)c5nc(C)n(C(C)C)c5c4)n3)nc2)CC1 | SK-OV-3 multi-cell spheroids, viability | viability, T/C | 61.7 |
| CC(C)(C)c1cnc(CSc2cnc(NC(=O)C3CCNCC3)s2)o1 + CCN1CCN(Cc2ccc(Nc3ncc(F)c(-c4cc(F)c5nc(C)n(C(C)C)c5c4)n3)nc2)CC1 | SK-OV-3 multi-cell spheroids, viability | viability, T/C | 60.1 |
| Cn1cnc2c(F)c(Nc3ccc(Br)cc3Cl)c(C(=O)NOCCO)cc21 + CC(C)NCC(C(=O)N1CCN(c2ncnc3c2C(C)CC3O)CC1)c1ccc(Cl)cc1 | SK-OV-3 multi-cell spheroids, viability | viability, T/C | 33.9 |
| CC(=O)c1c(C)c2cnc(Nc3ccc(N4CCNCC4)cn3)nc2n(C2CCCC2)c1=O + CCN1CCN(Cc2ccc(Nc3ncc(F)c(-c4cc(F)c5nc(C)n(C(C)C)c5c4)n3)nc2)CC1 | SK-OV-3 multi-cell spheroids, viability | viability, T/C | 51 |

Provenance of the data: PubChem BioAssay AID2060325
